- Tested system: Beta-3 adrenergic receptor (Homo sapiens, UniProt P13945)
- Sequence (P13945 whole entry): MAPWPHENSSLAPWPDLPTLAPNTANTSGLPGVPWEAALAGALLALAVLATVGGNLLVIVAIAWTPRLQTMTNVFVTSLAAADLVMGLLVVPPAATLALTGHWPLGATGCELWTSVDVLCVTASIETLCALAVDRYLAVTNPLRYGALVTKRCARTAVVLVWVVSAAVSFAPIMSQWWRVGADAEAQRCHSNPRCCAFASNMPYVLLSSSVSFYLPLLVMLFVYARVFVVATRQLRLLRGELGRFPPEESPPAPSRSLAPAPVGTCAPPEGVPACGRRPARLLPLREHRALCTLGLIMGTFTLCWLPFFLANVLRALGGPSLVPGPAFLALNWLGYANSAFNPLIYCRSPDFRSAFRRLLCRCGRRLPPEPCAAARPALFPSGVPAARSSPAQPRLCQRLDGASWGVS
- Experimental protocol: Agonist activity at Homo sapiens (human) beta3 adrenoreceptor
Value kind: EC50 (nM)
A number alone suffices; assume nM.

Qu. Answer with the recorded EC50 of CCOP(=O)(OCC)c1ccc(NC(=O)[C@@](C)(NC[C@H](O)c2ccc(O)c(NS(C)(=O)=O)c2)c2ccc(OC)cc2)cc1 only.
Ans. 93

---

Each entry below carries its reported EC50.
- Tested system: Beta-1 adrenergic receptor (Homo sapiens)
- Sequence (P08588 whole entry): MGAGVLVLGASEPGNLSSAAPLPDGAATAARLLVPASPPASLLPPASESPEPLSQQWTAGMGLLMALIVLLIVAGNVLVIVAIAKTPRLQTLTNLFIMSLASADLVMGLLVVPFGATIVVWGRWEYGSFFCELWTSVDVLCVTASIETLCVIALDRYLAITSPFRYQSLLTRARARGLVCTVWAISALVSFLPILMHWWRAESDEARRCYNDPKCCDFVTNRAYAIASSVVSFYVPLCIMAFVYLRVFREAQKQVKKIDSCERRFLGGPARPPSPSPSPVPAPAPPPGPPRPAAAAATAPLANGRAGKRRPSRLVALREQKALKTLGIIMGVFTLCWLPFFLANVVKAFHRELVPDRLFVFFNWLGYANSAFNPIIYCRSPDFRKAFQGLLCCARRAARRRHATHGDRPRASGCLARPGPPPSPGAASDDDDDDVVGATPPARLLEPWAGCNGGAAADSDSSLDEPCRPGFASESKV
- Experimental protocol: Agonist activity at Homo sapiens (human) beta1 adrenoreceptor
Write down the numeric answer in nM and omit the unit.

A selection of reference data follows.
# Compound, EC50 / nM
data = [
    ("CCN(CC)C(=O)COc1cccc2c(C[C@@H](C)NC[C@H](O)c3cccc(NS(=O)(=O)c4cccs4)c3)c[nH]c12", 6.8),
    ("C[C@H](Cc1c[nH]c2c(OS(C)(=O)=O)cccc12)NC[C@H](O)c1cccc(NS(=O)(=O)c2cccs2)c1", 18),
]

Qu. Give recorded EC50. C[C@H](Cc1c[nH]c2c(OCC(=O)O)cccc12)NC[C@H](O)c1cccc(NS(=O)(=O)c2cccs2)c1
Ans. 19

Qu. Return reported EC50. Input compound: CC(Cc1c[nH]c2c(OCC(=O)O)cccc12)NC[C@H](O)c1cccc(Cl)c1 (stereo not given in full)
Ans. 6.4

Qu. Answer with the recorded EC50 of C[C@H](Cc1c[nH]c2c(OS(C)(=O)=O)cccc12)NC[C@H](O)c1ccc(S(=O)(=O)Nc2ccccc2)cc1 only.
Ans. 19

Qu. Tell me its EC50 given C[C@H](Cc1cn2c3c(cccc13)OCCC2)NC[C@H](O)c1cccc(NS(=O)(=O)c2cccs2)c1 as the entry.
Ans. 44
